# METHOD_SUMMARY: chemical genetic growth profiling, strain panel (AID 1159580);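 further: tested at 20 µM; growth read once vehicle control cultures reached saturation at 30 °C; 1 = growth at the plate median or of vehicle wells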
# MEASUREMENT_CONDITIONS: S. cerevisiae deletion strains, growth OD, locus YHR142W, strain chs7
In all, about 5,500 compounds went through this assay and about 2,000 (36%) were called active. Roughly 18% stayed inconclusive and do not appear here. No stated cut-off is given here; in the data, active means normalized growth mostly below about 0.91 (no sharp cut-off); inconclusive means no clear call, values can overlap the other calls; inactive means mostly above about 0.92. The list shows a part of the results.
Outcomes: active, inactive

COMPOUND	CATEGORY
C#C[C@]1(O)CCC2C3CCC4=CC(=O)CC[C@@H]4C3CC[C@@]21CC (some centres not stated)	inactive
CC1(C)CC[C@]2(C(=O)O)CC[C@]3(C)C(=CCC4[C@@]5(C)CC[C@H](O)[C@@](C)(CO)C5CC[C@]43C)C2C1 (some centres not stated)	inactive
C[C@@H]1OC(O[C@H]2C(O[C@H]3CC[C@@]4(C)C(CC[C@]5(C)C4CC=C4C6CC(C)(C)CC[C@]6(C(=O)O)CC[C@]45C)[C@]3(C)CO)OC[C@H](O)[C@@H]2O)[C@H](O)[C@H](O)[C@H]1O (some centres not stated)	active
CC(=O)O[C@@H]1CC[C@@]2(C)C(CC[C@]3(C)C2CC=C2C4CC(C)(C)CC[C@]4(C(=O)O)CC[C@]23C)C1(C)C (some centres not stated)	inactive
NCCC(=O)N[C@@H](Cc1cnc[nH]1)C(=O)O	inactive
CC1OC(=O)C(C(C)C)NC(=O)C(C(C)C)OC(=O)C(C(C)C)NC(=O)C(C)OC(=O)C(C(C)C)NC(=O)C(C(C)C)OC(=O)C(C(C)C)NC(=O)C(C)OC(=O)C(C(C)C)NC(=O)C(C(C)C)OC(=O)C(C(C)C)NC1=O (configuration not stated)	active
CC1(C)CC(O)C2(C)CCC3(C)C(=CCC4C5(C)CCC(O)C(C)(CO)C5CCC43C)C2C1 (configuration not stated)	inactive

---

# METHOD_SUMMARY: chemical genetic growth profiling, strain panel (AID 1159580);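 further: tested at 20 µM; growth read once vehicle control cultures reached saturation at 30 °C; 1 = growth at the plate median or of vehicle wells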
# MEASUREMENT_CONDITIONS: S. cerevisiae deletion strains, growth OD, locus YBR229C, strain ROT2, stronger effect = lower value
Hit rate of the full screen: of about 5,500 compounds, about 2,000 (36%) were called active. Not shown: some 18% with an inconclusive outcome. Some of the results follow.
QUANTITY_NAME: normalized growth

MOLECULE	QUANTITY_NAME	RESULT
O=C1C(O)=C(O)C(=O)C(O)=C1O	normalized growth	0.964
CS/C(N)=N\N=C/c1c(F)cccc1Cl	normalized growth	0.992
CNC(=O)O/N=C\C(C)(C)SC	normalized growth	0.996
Nc1c2c(nc3ccccc13)CCCC2	normalized growth	1.02
O=c1[nH]cc(F)c(=O)[nH]1	normalized growth	1.01
COc1cc(N)c(Cl)cc1C(=O)NC1CCN(Cc2ccccc2)CC1	normalized growth	0.988
CC(=O)/C=C\[C@@H]1[C@@]2(C)CCCC(C)(C)C2CC[C@@]1(C)O (some centres undefined)	normalized growth	0.946
COC(=O)Nc1nc2ccc(Sc3ccccc3)cc2[nH]1	normalized growth	0.997
O=C(O)CSCC(=O)NC1CCN(Cc2ccccc2)CC1	normalized growth	1.01
COC(=O)C[C@H]1C(C)(C)C(=O)[C@@H]2CC3C4=CC(=O)O[C@@H](c5ccoc5)[C@]4(C)CCC3[C@@]1(C)C2=O (some centres undefined)	normalized growth	0.944
Nc1c2c(nc3ccccc13)CCCC2O (centres undefined)	normalized growth	1.01
CCOC(=O)c1ccc2[nH]c(-c3ccccc3)cc(=O)c2c1	normalized growth	1
Nc1ccc(S(=O)(=O)Nc2cnc3ccccc3n2)cc1	normalized growth	0.957
COc1ccc2c3c([nH]c2c1)C(C)=NCC3	normalized growth	1
COC(=O)c1cccc(NC(=O)CC2C(=O)NCCN2C(=O)c2cccs2)c1 (centres undefined)	normalized growth	1.02
NCCC(=O)N[C@@H](Cc1cnc[nH]1)C(=O)O	normalized growth	0.993
N#CC(O[C@@H]1O[C@H](CO[C@@H]2O[C@H](CO)[C@@H](O)[C@H](O)[C@H]2O)[C@@H](O)[C@H](O)[C@H]1O)c1ccccc1 (some centres undefined)	normalized growth	0.993
Nc1ccccc1C(=O)N/N=C\c1cccc2ccccc12	normalized growth	0.977
COc1ccc(Oc2cc(C)nc3ccccc23)cc1	normalized growth	1
COC(=O)C[C@H]1C(C)(C)C2(O)OC34CC2C(=O)[C@]1(C)C3CC[C@]1(C)C4=CC(=O)O[C@H]1c1ccoc1 (some centres undefined)	normalized growth	1.01
COc1ccccc1C1OC(=O)CC1C(=O)O (centres undefined)	normalized growth	1.02
CCOC(=O)c1nc(-c2ccccc2)sc1C(=O)OCC	normalized growth	0.955
NNc1nncc2ccccc12	normalized growth	1.01
COC(=O)Nc1nc2ccc(C(=O)c3ccccc3)cc2[nH]1	normalized growth	1.02
